biological target: FGFR2IIIb on cells (human, UniProt P21802); assay: FACS, CHO-FGFR2IIIb
Sequence (P21802 22-377): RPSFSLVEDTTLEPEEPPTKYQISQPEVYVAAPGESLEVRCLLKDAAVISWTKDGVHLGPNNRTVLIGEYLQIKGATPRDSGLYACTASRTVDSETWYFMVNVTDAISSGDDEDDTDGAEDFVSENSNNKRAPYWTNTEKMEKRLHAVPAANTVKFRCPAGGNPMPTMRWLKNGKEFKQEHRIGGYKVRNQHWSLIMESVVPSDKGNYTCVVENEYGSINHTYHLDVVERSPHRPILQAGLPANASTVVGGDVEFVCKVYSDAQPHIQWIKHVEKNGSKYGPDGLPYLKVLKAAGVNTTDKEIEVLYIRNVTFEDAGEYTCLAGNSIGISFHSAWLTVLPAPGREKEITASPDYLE
Outcome measure: EC50 (µg/mL)
The response must be a number in µg/mL with no trailing unit.

Binder	Unit abbreviation	Observed result
III-10 (antibody, V domains shown) VH: QVQLVQSGAEVKKPGSSVKVSCKASGYTFANYNMHWVRQAPGQGLEWIGAIYPGNGDTSYNQKFKGKATLTADKSTSTAYMELSSLRSEDTAVYYCARGDFGYWGQGTLVTVSS VL: DIVMTQSPSSLSASVGDRVTITCKASQDVNIDVAWYQQKPGKAPKLLIYSASYRYTGVPSRFSGSGSGTDFTFTISSLQPEDFATYYCQQHYSTPYTFGQGTKLEIK	µg/mL	0.257
III-15 (antibody, V domains shown) VH: QVQLVQSGAEVKKPGSSVKVSCKASGYTFAIYNMHWVRQAPGQGLEWIGAIYPDNGDTFYNQKFKGKATLTADKSTSTAYMELSSLRSEDTAVYYCARGDFGYWGQGTLVTVSS VL: DIVMTQSPSSLSASVGDRVTITCKASQDVNIDVAWYQQKPGKAPKLLIYLASYRYTGVPSRFSGSGSGTDFTFTISSLQPEDFATYYCQQTYSTPYTFGQGTKLEIK	µg/mL	0.26

Form: binder = III-11 (antibody, V domains shown) VH: QVQLVQSGAEVKKPGSSVKVSCKASGYTFAIYNMHWVRQAPGQGLEWIGAIYPDNGDTFYNQKFKGKATLTADKSTSTAYMELSSLRSEDTAVYYCARGDFGYWGQGTLVTVSS VL: DIVMTQSPSSLSASVGDRVTITCKASQDVNIDPAWYQQKPGKAPKLLIYLASYRYTGVPSRFSGSGSGTDFTFTISSLQPEDFATYYCQQHYSTPYTFGQGTKLEIK ; EC50 = 0.19

Form: binder = III-14 (antibody, V domains shown) VH: QVQLVQSGAEVKKPGSSVKVSCKASGYTFAIYNMHWVRQAPGQGLEWIGAIYPGNGDTFYNQKFKGKATLTADKSTSTAYMELSSLRSEDTAVYYCARGDFGYWGQGTLVTVSS VL: DIVMTQSPSSLSASVGDRVTITCKASQDVNIDVAWYQQKPGKAPKLLIYLASYRYTGVPSRFSGSGSGTDFTFTISSLQPEDFATYYCQQTYSTPYTFGQGTKLEIK ; EC50 = 0.263

Form: binder = III-0 (antibody, V domains shown) VH: QVQLQQPGAELVRPGASVKMSCKASGYTFANYNMHWVKQTPRQGLEWIGAIYPGNGDTSYNQKFKGKATLTADKSSSTAYMQLSSLTSEDSAVYYCARGDFGYWGQGTTLTVSS VL: DIVMTQSHKFMSTSVGDRVTITCKASQDVNIDVAWYQQKPGQSPKLLIYSASYRYTGVPDRFTGSGSGTDFTFTISSVQAEDLAVYYCQQHYSTPYTFGGGTKLEIK ; EC50 = 0.342
